MEASUREMENT TARGET: Protein-glutamine gamma-glutamyltransferase (Homo sapiens)
Sequence (P21980 2-687 limits assumed, stated change not applied): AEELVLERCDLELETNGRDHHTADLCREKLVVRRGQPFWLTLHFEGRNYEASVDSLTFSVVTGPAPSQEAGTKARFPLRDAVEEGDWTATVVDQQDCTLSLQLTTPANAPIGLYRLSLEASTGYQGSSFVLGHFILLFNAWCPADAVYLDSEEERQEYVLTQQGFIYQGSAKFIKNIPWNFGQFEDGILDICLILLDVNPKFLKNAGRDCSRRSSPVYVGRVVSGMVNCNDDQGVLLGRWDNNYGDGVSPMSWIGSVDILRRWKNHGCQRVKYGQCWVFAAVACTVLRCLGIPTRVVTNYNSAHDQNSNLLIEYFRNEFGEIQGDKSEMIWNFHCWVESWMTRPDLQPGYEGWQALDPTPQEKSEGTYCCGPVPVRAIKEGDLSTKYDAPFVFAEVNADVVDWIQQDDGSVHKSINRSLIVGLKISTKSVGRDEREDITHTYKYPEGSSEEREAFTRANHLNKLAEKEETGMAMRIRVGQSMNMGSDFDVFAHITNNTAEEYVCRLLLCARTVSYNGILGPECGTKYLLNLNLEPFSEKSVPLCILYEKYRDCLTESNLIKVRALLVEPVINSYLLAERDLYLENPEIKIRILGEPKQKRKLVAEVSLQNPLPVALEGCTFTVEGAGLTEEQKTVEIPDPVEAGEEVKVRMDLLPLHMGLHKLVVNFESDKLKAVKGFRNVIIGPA
EXPERIMENT SUMMARY: Competitive inhibition of recombinant human TG2 V224 mutant deamidation activity using Cbz-Gln-Gly as substrate preincubated for 30 mins followed by substrate addition by Lineweaver-Burk plot analysis in presence of 5 mM Ca2+
PROPERTY MEASURED: Ki (µM)
Note: unit µM is implicit; provide only the numeric part.

IN: Provide Protein-glutamine gamma-glutamyltransferase (Homo sapiens) Ki reading for Nc1nc2c(ncn2[C@@H]2O[C@H](COP(=O)(O)OP(=O)(O)NP(=O)(O)O)[C@@H](O)[C@H]2O)c(=O)[nH]1 .
OUT: 27

Origin of values: ChEMBL document CHEMBL3627680
